The origin of these recorded values is the CheMixHub viscosity set.

Entries annotated with measured viscosity
# test: xn = mol fraction of the nth substance listed
# experimental-parameters: 308.15 K; 101 kPa; x2 = 0.8
Output spec: scalar in mPa·s, unitless text.

According to the records, this compound CCCCCCCCCO + CCO displays viscosity of 1.818

viscosity in this record for CCCCCCCCCO + CCCCO : 2.672

Sure, the documented viscosity for CCCCCCCCCO + CO is 1.248

get_value(item= CCCCCCCCCO + CCCO , readout=viscosity) returns 2.332

###

# test: xn = mol fraction of the nth substance listed
# experimental-parameters: 318.15 K; 101 kPa; x2 = 0.75
property-label: viscosity (mPa·s)
Return type: number; implicit unit mPa·s.

Below, each entry is followed by its recorded viscosity result.
{"columns": ["compound", "property-label", "unit-of-measure", "readout-number"],
 "data": [
  ["CCCCCCCCCO + CCO", "viscosity", "mPa·s", 1.66],
  ["CCCCCCCCCO + CCCO", "viscosity", "mPa·s", 1.988],
  ["CCCCCCCCCO + CCCCO", "viscosity", "mPa·s", 2.198]
]}

Now consider the entry below.
viscosity for CCCCCCCCCO + CO is 1.215

###

Measured viscosity of individual entries
# test: xn = mol fraction of the nth substance listed
# experimental-parameters: 298.15 K; 101 kPa; x2 = 0.35
Your answer is read as mPa·s, so omit the unit and give the number.

{"columns": ["molecule", "readout-number"],
 "data": [
  ["CCCCCCCCCO + CO", 5.193],
  ["CCCCCCCCCO + CCCO", 6.22],
  ["CCCCCCCCCO + CCCCO", 6.356]
]}

Now, please, on to the next molecule.
// CCCCCCCCCO + CCO : viscosity value = 5.893

###

# test: xn = mol fraction of the nth substance listed
# experimental-parameters: 298.15 K; 101 kPa; x2 = 0.55
property-label: viscosity (mPa·s)
Entry rule: numbers only, all in mPa·s.

Sample records with viscosity:
{"columns": ["molecule", "viscosity [mPa·s]"],
 "data": [
  ["CCCCCCCCCO + CO", 3.317],
  ["CCCCCCCCCO + CCCCO", 5.029],
  ["CCCCCCCCCO + CCO", 4.176]
]}

Now take the following molecule into account.
Recorded viscosity (molecule CCCCCCCCCO + CCCO ): 4.708

###

As shown below, each of these compounds has a reported viscosity value.
# experimental-parameters: 323.15 K; 101 kPa
State the answer as a number, implicitly in mPa·s.

Reference set (3 entries):
{"columns": ["compound", "viscosity [mPa·s]"],
 "data": [
  ["CN(C)CCCO", 2.765],
  ["CCCCCCCC[n+]1ccn(C)c1.F[B-](F)(F)F", 92.1],
  ["CC(O)CN(C)C (centres undefined)", 0.825]
]}

Let us move to another entry and its viscosity.
Query NCCNCCO.O=S(=O)([N-]S(=O)(=O)C(F)(F)F)C(F)(F)F.[Li+] yields viscosity of 735.9

###

# test: xn = mol fraction of the nth substance listed
# experimental-parameters: 308.15 K; 101 kPa; x2 = 0.75
± gives the uncertainty stated by the source.
property-label: viscosity

Some solved entries appear below for comparison.
{"columns": ["compound", "property-label", "result"],
 "data": [
  ["CCCCCCCCCO + CCO", "viscosity", "2.078 ± 0.018 mPa·s"],
  ["CCCCCCCCCO + CCCCO", "viscosity", "2.877 ± 0.026 mPa·s"]
]}

Value of viscosity reported for the compound CCCCCCCCCO + CCCO is 2.563 ± 0.023 mPa·s
